assay: logP determination by HPLC (EEC-Directive 79/831 Annex V. A8); assay type: physicochemical; details: gradient method, acetonitrile/0.1% aqueous phosphoric acid
Decide using logP: a value greater than or equal to 5 is criterion met, a smaller one is criterion not met.

{"columns": ["structure", "assigned_class"],
 "data": [
  ["CON=C(C(=O)N(C)SC(F)(Cl)Cl)c1ccccc1Oc1ncnc(Oc2ccc(OC(F)(F)F)cc2C)c1F", "criterion met"],
  ["CON=C(C(=O)N(C)SC(F)(Cl)Cl)c1ccccc1Oc1ccc(OC(F)(F)F)cc1Cl", "criterion met"],
  ["CON=C(C(=O)N(C)SC(F)(Cl)Cl)c1ccccc1Oc1ccccc1", "criterion not met"],
  ["CON=C(C(=O)N(C)C(=O)N(C)SC(F)(Cl)Cl)c1ccccc1Oc1ccccc1", "criterion not met"]
]}

* * *

logP values for the molecules below.
assay: logP determination by HPLC (EEC-Directive 79/831 Annex V. A8); format: physicochemical; details: gradient method, acetonitrile/0.1% aqueous phosphoric acid
observable: logP

{"columns": ["structure", "recorded_result"],
 "data": [
  ["CON=C(C(=O)N(C)SC(F)(Cl)Cl)c1ccccc1Oc1ncnc(Oc2ccccc2Cl)c1F", 5.05],
  ["CON=C(C(=O)N(C)SC(F)(Cl)Cl)c1ccccc1Oc1ncnc(Oc2ccc(F)cc2Cl)c1F", 5.14],
  ["CON=C(C(=O)N(C)Sc1ccc(F)cc1)c1ccccc1COc1ccccc1C", 5.11]
]}

* * *

assay: logP determination by HPLC (EEC-Directive 79/831 Annex V. A8); assay type: physicochemical; details: gradient method, acetonitrile/0.1% aqueous phosphoric acid
logP values for the compounds below.
observable: logP

{"columns": ["compound", "observable", "recorded_result"],
 "data": [
  ["CON=C(C(=O)N(C)Sc1ccc(Cl)c(C(F)(F)F)c1)c1ccccc1COc1ccccc1C [Example 25]", "logP", 5.8],
  ["CCOC(=O)N(C)C(=O)C(=NOC)c1ccccc1Oc1ccccc1 [Example 41]", "logP", 3.59],
  ["CCSCc1ccccc1Oc1ncnc(Oc2ccccc2C(=NOC)C(=O)N(C)SC(F)(Cl)Cl)c1F [Example 95]", "logP", 5.36],
  ["CON=C(C(=O)N(C)C(=O)N(C)SC(F)(F)F)c1ccccc1CON=C(C)c1cccc(C(F)(F)F)c1 [Example 76]", "logP", 5.22],
  ["CON=C(C(=O)N(C)SC(F)(Cl)Cl)c1ccccc1CON=C(C)c1cccc(C(F)(F)F)c1 [Example 32]", "logP", 5.74],
  ["CON=C(C(=O)N(C)SC(F)(Cl)Cl)c1ccccc1Oc1ncnc(Oc2cccc(Br)c2)c1F [Example 101]", "logP", 5.39],
  ["CON=C(C(=O)N(C)Sc1ccc(OC)cc1)c1ccccc1COc1ccccc1C [Example 11]", "logP", 4.98],
  ["CCSC(=O)N(C)C(=O)C(=NOC)c1ccccc1COc1ccccc1C [Example 27]", "logP", 4.91],
  ["CON=C(C(=O)N(C)SC(F)(Cl)Cl)c1ccccc1Oc1ncnc(Oc2ccc(SC(F)(F)F)cc2)c1F [Example 139]", "logP", 5.6],
  ["CON=C(C(=O)N(C)SC)c1ccccc1CON=C(C)c1cccc(C(F)(F)F)c1 [Example 71]", "logP", 4.73],
  ["CON=C(C(=O)N(C)SC(=O)OC)c1ccccc1CON=C(C)c1cccc(Cl)c1 [Example 81]", "logP", 4.71],
  ["CCOCN(C)C(=O)C(=NOC)c1ccccc1CON=C(C)c1cccc(C(F)(F)F)c1 [Example 39]", "logP", 4.58],
  ["CON=C(C(=O)N(C)SC(F)(Cl)Cl)c1ccccc1Oc1ncnc(Oc2ccc(Br)cc2)c1F [Example 104]", "logP", 5.19],
  ["CON=C(C(=O)N(C)SC(Cl)(Cl)Cl)c1ccccc1COc1ccccc1C [Example 6]", "logP", 5.56],
  ["CON=C(C(=O)N(C)SC(F)(Cl)Cl)c1ccccc1Oc1ncnc(Oc2cccc(C)c2C)c1F [Example 92]", "logP", 5.34],
  ["CON=C(C(=O)N(C)C(=O)N(C)SC(F)(Cl)Cl)c1ccccc1COc1ccccc1C [Example 16]", "logP", 5.08],
  ["CON=C(C(=O)N(C)SN(C)C(=O)OC)c1ccccc1COc1ccccc1C [Example 8]", "logP", 4.24],
  ["CON=C(C(=O)N(C)SC(F)(Cl)Cl)c1ccccc1Oc1ncnc(Oc2ccc(I)cc2)c1F [Example 127]", "logP", 5.35],
  ["CON=C(C(=O)N(C)SC(F)(Cl)Cl)c1ccccc1Oc1ncnc(Oc2cccc(C)c2)c1F [Example 128]", "logP", 4.98],
  ["CCOC(=O)N(C(=O)OCC)C(=O)C(=NOC)c1ccccc1COc1ccccc1C [Example 29]", "logP", 4.42],
  ["CON=C(C(=O)N(C)SC(F)(Cl)Cl)c1ccccc1Oc1ncnc(Oc2ccccc2C(C)C)c1F [Example 123]", "logP", 5.56],
  ["CON=C(C(=O)N(C)SC(F)(Cl)Cl)c1ccccc1Oc1ncnc(Oc2ccc(C)cc2)c1F [Example 120]", "logP", 5.02],
  ["CON=C(C(=O)N(C)C(=O)OCC(C)C)c1ccccc1COc1ccccc1C [Example 14]", "logP", 5.21]
]}

Where these numbers come from: patent US6403600B1
